Biological target: Sho1, P40073
Sequence (P40073 287-367): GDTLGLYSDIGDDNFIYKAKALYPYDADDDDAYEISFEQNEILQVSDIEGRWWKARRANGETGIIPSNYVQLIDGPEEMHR
Assay: SPOT array
Conditions: median of control spots 1148
Reported property: SPOT intensity

Some solved cases for reference:
>  <Binder>
RSLRKRPTSPSISGS

>  <SPOT intensity>
295

$$$$
>  <Binder>
NVLRKILEIPLHSFS

>  <SPOT intensity>
6

$$$$
>  <Binder>
TPTSGPPLLPPRNTM

>  <SPOT intensity>
21

$$$$
>  <Binder>
MAMRPIPPLPTESEY

>  <SPOT intensity>
30

$$$$

P. PSRRAPLQLPQLVNK
Q. NPLPKEPRLPKRKVA
Param pair: P , Q . Output: the one whose SPOT intensity is numerically greater. # reply format: chosen label
Q
(Q: 107, P: 17)
